# METHOD_DESCRIPTION: qHTS of pediatric cancer cell lines to identify multiple opportunities for drug repurposing: Primary screen for LAN-5 cells (AID 1347100)
# TEST_SETTINGS: LAN-5 neuroblastoma viability, CellTiter-Glo luminescence, 48 h; series mostly up to 46 µM
Results filed as inconclusive are left out. Active and inactive are the calls of the source. Calls follow the shape of the dose curve; as a rule, active = well fitted cell-killing curve with a large enough effect; inconclusive = small, poorly fitted or top-dose-only effect; inactive = no such curve, though single readings can be large or run the other way.
Answer with one of the outcomes active, inactive

Before answering, review these 8 worked examples.
CN(CC(=O)N(Cc1ccc(C2CCCCC2)cc1)c1ccc(C(=O)O)c(O)c1)S(=O)(=O)c1c(F)c(F)c(F)c(F)c1F ... active
C#C[C@]1(O)CC[C@@H]2[C@@H]3CCC4=CC(=O)CC[C@@H]4[C@H]3CC[C@@]21CC ... inactive
COc1cc(C=CC(=O)CC(=O)C=Cc2ccc(O)c(OC)c2)ccc1O ... active
C[C@@H]1[C@H](C)CC[C@]2(C(=O)O)CC[C@]3(C)C(=CC[C@@H]4[C@@]5(C)C[C@@H](O)[C@H](O)[C@@](C)(CO)[C@H]5CC[C@]43C)[C@@H]12 ... inactive
COc1ccc(S(=O)(=O)Nc2cccnc2Nc2ccc(O)cc2)cc1 ... active
COc1cc(C(C)C)c(Oc2cnc(NC(CO)CO)nc2N)cc1I ... inactive
FC(F)c1nc2ccccc2n1-c1nc(N2CCOCC2)nc(N2CCOCC2)n1 ... active
C[C@H]1O[C@H](O[C@H]2[C@H](O)[C@@H](O)[C@@H](O[C@H]3[C@H](O)[C@@H](O)C(O)O[C@H]3CO)O[C@H]2CO)[C@H](O)[C@@H](O)[C@H]1N[C@H]1C=C(CO)[C@@H](O)[C@H](O)[C@@H]1O (some centres not stated) ... active

Query: Call for entry "CCCCOc1ccc(C(=O)Nc2ccc(F)cc2F)cc1" :
Response: inactive

Query: // param item: "C=CC(=O)Nc1ccc2ncnc(Nc3ccc(OCc4cccc(F)c4)c(Cl)c3)c2c1" ; yields the recorded call
Response: active

Query: Per the records of this test, what outcome belongs to "c1ccc(CNc2nc(NCc3ccccc3)c3ccccc3n2)cc1" ?
Response: active

Query: Which outcome was entered for the molecule "Cc1ccc([N+](=O)[O-])cc1S(=O)(=O)N(C)N=Cc1cnc2ccc(Br)cn12" in this test?
Response: active

Query: Could you check what this test reported for "CCS(=O)(=O)Nc1ccc2[nH]c(O)c(C(=Nc3ccc(CN4CCCCC4)cc3)c3ccccc3)c2c1" ?
Response: active

Query: Just curious, what result did "CCc1ccc(C(=O)Nc2cc(CN3CCN(C)CC3)cc(C(F)(F)F)c2)cc1C#Cc1cnc2ccnn2c1" get here?
Response: active

Query: Field: outcome | Entry: "CC(=O)OCC(=O)[C@@]12N=C(C)O[C@H]1C[C@H]1[C@@H]3CCC4=CC(=O)C=C[C@]4(C)[C@@H]3[C@@H](O)C[C@@]12C"
Response: inactive

Query: Look up the recorded call for "CC(C)N(CC[C@H](c1ccccc1)c1cc(CO)ccc1O)C(C)C" in this test.
Response: inactive

Query: # fetch the recorded call for "COc1ccc([C@@H]2CNC(=O)C2)cc1OC1CCCC1" here
Response: inactive

Query: Record request — test call for "O=S(=O)(O)CCSSCCS(=O)(=O)O"
Response: inactive

Query: Please indicate how the test categorized CC(=O)SCC(Cc1ccccc1)C(=O)NCC(=O)OCc1ccccc1 (configuration not stated) .
Response: active

Query: Field: outcome | Entry: "CCOC(=O)N1CCN([N+]([O-])=NOc2ccc([N+](=O)[O-])cc2C#N)CC1"
Response: active

Query: Could you please tell me the result logged for "COc1ccc(Nc2cc(-c3cnc(N)nc3)nc(N3CCOCC3)n2)cn1" in this assay?
Response: active

Query: For "O=c1ccn([C@@H]2O[C@H](CO)[C@H](O)[C@@H]2F)c(=O)[nH]1" , which call appears in the assay record?
Response: inactive

Data provenance is PubChem BioAssay (NCATS).
